These measurements were taken from paper PMC6318249.

# test-system: p50 S248D (Mus musculus, UniProt P25799 39-364, S246D)
# Sequence (P25799 39-364 S246D): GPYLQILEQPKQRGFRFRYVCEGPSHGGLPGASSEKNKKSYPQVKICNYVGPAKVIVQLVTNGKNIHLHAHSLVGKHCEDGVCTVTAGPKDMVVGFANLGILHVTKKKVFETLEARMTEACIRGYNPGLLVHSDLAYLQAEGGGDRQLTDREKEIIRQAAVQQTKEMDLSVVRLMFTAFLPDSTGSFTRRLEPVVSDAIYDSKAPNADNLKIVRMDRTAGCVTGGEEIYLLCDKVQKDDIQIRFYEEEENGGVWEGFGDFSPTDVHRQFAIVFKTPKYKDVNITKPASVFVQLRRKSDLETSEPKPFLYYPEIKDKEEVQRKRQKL
# assay-procedure: native MS titration; KD: 3 uM p50 with 0.2-6 uM DNA in 300 mM NH4OAc, 5 min, room temperature, 10 uL, pH not stated; native nESI-(IM-)MS
# assay-context: protein: recombinant; tags: His6-MBP removed by 3C protease; chain copies: 2; blunt; strand is self-complementary
measured-quantity: Kd
// return the numeric value with its unit appended

Task: Can you share its Kd? I mean this binder: kB DNA oligomer (KD determination) (dsDNA) DNA 1: CCCCCGGGGGCCCCCGGGGG DNA 2: CCCCCGGGGGCCCCCGGGGG
Output: 112 nM
